# Test system: Escherichia coli TOP10;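 also: peptides expressed intracellularly from a pBAD plasmid library in pooled LB shake-flask culture, induced with 0.3% L-arabinose, DNA abundance read by NGS, three biological replicates, DESeq2 with apeglm shrinkage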
# test: shrunken log2 fold change of peptide-encoding DNA abundance (4.5 h post-induction vs induction); higher = less antimicrobial activity (less host growth inhibition)
# run_parameters: time post-induction: 4.5 h; library: site-saturation at positions 5, 18, 19, 20
test_readout: shrunken log2 fold change
Note: the reply should be a number with no unit written.

For the sequence RRIRHRPPRLPRPRPRPVYPPRP , give its reported shrunken log2 fold change.
-0.529

For the sequence RRIRDRPPRLPRPRPRPLLTPRP , give its reported shrunken log2 fold change.
0.35

For the sequence RRIRFRPPRLPRPRPRPFLSPRP , give its reported shrunken log2 fold change.
-0.167

For the sequence RRIRPRPPRLPRPRPRPIYCPRP , give its reported shrunken log2 fold change.
-0.102

For the sequence RRIRERPPRLPRPRPRPKQLPRP , give its reported shrunken log2 fold change.
0.123

For the sequence RRIRRRPPRLPRPRPRPNCKPRP , give its reported shrunken log2 fold change.
0.155

For the sequence RRIRMRPPRLPRPRPRPVNSPRP , give its reported shrunken log2 fold change.
0.00706

For the sequence RRIRTRPPRLPRPRPRPGDMPRP , give its reported shrunken log2 fold change.
1.73
